Would you kindly list IC50 for each of these molecules?
Molecular target: Carboxypeptidase A1 (Bos taurus)
Sequence (P00730 whole entry): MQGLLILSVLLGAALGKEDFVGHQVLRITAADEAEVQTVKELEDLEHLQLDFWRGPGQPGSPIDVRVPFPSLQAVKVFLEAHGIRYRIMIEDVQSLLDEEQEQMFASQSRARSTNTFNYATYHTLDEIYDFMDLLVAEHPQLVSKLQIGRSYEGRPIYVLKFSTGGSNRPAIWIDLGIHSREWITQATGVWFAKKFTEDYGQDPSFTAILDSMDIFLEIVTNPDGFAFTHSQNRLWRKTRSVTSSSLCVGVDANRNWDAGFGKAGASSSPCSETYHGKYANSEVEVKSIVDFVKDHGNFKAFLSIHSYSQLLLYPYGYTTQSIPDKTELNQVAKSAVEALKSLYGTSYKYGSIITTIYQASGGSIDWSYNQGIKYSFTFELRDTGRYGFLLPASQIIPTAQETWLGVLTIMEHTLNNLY
Number in µM, nothing else.

q: # query: IC50 of entry CC(C)C[C@H](N[C@@H](Cc1cncn1Cc1cc(Cl)cc(Cl)c1)C(=O)O)C(=O)O [MLN4760]
a: 27

q: Next: CC(C)C[C@H](N[C@@H](Cc1cncn1C(C)(C)C1CCCCC1)C(=O)O)C(=O)O
a: 12

q: Next: CC[C@H](N[C@@H](Cc1cncn1Cc1ccccc1)C(=O)O)C(=O)O
a: 2.8

---

Endpoint: IC50. System: Angiotensin-converting enzyme (Sus scrofa). Items follow.
Sequence (A1YQ85 whole entry): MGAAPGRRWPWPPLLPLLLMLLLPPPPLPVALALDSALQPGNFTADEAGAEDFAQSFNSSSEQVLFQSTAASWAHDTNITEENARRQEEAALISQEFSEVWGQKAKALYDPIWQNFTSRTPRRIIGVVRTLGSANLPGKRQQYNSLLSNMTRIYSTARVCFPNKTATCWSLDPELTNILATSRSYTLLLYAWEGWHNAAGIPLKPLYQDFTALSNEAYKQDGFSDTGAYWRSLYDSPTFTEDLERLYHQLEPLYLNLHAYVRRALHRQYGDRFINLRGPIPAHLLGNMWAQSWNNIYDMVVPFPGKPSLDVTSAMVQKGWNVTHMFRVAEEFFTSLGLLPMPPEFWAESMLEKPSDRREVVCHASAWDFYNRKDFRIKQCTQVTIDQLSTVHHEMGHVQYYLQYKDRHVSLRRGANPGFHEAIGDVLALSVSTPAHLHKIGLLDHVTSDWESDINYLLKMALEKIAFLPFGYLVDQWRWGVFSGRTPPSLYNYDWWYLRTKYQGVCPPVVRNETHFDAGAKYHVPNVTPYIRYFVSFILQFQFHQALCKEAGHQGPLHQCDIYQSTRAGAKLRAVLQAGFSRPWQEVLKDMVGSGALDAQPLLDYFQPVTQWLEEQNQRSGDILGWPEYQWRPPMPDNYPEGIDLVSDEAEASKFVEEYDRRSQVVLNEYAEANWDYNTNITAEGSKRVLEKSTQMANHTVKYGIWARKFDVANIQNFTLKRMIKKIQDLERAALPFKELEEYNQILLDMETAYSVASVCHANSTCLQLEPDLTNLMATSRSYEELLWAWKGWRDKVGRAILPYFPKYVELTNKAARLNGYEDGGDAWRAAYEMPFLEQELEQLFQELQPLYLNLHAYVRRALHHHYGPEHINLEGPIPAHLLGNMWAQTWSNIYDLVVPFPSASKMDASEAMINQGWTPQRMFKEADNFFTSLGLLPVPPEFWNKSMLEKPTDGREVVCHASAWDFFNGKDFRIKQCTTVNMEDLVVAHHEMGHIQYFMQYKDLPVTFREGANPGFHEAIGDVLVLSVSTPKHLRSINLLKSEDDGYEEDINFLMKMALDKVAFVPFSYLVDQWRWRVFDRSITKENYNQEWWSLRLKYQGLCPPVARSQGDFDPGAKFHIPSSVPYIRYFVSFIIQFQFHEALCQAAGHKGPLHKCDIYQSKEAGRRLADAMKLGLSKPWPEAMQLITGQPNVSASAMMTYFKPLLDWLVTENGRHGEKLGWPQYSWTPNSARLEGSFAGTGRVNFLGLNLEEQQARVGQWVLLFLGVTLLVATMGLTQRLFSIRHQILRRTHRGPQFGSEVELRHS

q: # query: IC50 of entry Cc1cccc(Cn2cncc2C[C@H](N[C@@H](CC(C)C)C(=O)O)C(=O)O)c1
a: > 10 µM

q: Next: CC(C)C[C@H](N[C@@H](Cc1cncn1Cc1cc(Cl)cc(Cl)c1)C(=O)O)C(=O)O
a: > 100 µM

---

target: Angiotensin-converting enzyme 2 (Homo sapiens)
Sequence (Q9BYF1 whole entry): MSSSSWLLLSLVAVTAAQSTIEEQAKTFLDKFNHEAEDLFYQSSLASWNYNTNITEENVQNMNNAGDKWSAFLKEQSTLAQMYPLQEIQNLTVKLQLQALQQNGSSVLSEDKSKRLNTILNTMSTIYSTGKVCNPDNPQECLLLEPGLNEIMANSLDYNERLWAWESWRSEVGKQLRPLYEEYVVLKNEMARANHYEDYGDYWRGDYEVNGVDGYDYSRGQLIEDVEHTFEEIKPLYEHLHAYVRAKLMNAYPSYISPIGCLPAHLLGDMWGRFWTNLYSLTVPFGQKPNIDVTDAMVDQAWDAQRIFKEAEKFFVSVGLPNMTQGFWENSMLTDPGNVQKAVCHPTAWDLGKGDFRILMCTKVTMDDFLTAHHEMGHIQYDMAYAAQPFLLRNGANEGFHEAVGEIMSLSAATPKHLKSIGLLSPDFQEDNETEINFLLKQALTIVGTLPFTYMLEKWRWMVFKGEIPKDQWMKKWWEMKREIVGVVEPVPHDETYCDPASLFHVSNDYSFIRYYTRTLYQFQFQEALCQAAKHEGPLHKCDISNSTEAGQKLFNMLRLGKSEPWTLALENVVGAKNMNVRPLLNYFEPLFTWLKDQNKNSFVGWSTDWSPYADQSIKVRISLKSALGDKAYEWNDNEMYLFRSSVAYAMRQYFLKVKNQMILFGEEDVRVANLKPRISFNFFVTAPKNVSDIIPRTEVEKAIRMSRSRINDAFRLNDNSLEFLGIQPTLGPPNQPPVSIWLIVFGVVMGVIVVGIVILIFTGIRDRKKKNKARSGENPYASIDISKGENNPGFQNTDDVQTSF
readout_name: pIC50
Field pIC50 (float): negative decimal logarithm of the concentration in molar.

q: # query: pIC50 of entry Cc1ccc(Cn2cncc2C[C@H](N[C@@H](CC(C)C)C(=O)O)C(=O)O)cc1C
a: 8.00

q: Next: CC(C)C[C@H](N[C@@H](Cc1cncn1Cc1cc(Cl)cc(Cl)c1)C(=O)O)C(=O)O
a: 9.36

q: Next: Cc1ccc(Cn2cncc2C[C@H](N[C@@H](CC(C)C)C(=O)O)C(=O)O)cc1
a: 7.49

src = BindingDB's records for doi:10.1021/ja0277226
